Tested on: Schistosoma mansoni
Assay: Inhibition of recombinant Schistosoma mansoni SmCB1 expressed in Pichia pastoris at 5 uM using Z-FR-AMC as substrate and measured at 23 sec interval for 30 mins without preincubation by fluorimetric analysis relative to control
Is inhibition at least 40%? Then 1. If not, 0.

Check out these entries, answers already filled in.
Cc1ccc(CN2CCC(C(=O)Nc3ccc(-c4cc5ccccc5[nH]4)cc3)CC2)o1 : 0
O=C1C2=C(Nc3ccccc3SC2c2ccccc2)c2ccccc21 (stereo not given) : 0
Cc1cc(NC(=O)C2c3ccccc3C(=O)N(CC(C)C)C2c2cccs2)no1 (stereo not given) : 1
CC1(c2ccccc2)Nc2ccccc2-c2nc3ccccc3n21 (stereo not given) : 1

# input Could you tell me if the measured inhibition of CCOc1cc(Cl)c(C(C)NC(=O)c2cccc(OC)c2)cc1OCC (stereo not given) reaches 40% or more?
# output 0

# input Item COc1ccc(-c2cc3c(nn2)-c2ccccc2C3=O)cc1 with inhibition of 40% or above?
# output 0

# input # bool: inhibition of CC(C)(C)c1ccc(O)c(CNC2CCCCC2)c1 >= 40%
# output 0
